Counter-ions that a name gives are not always drawn.
readout-kind: melting point

Example entries begin here.
| compound | melting point |
| --- | --- |
| CN(C)C[C@H]1COc2ccc3[nH]nc(S(=O)(=O)c4cccc5ccccc45)c3c2O1 (as salt: hydrochloride) | 178.1 to 181.3 °C |
| O=S(=O)(c1cccc2ccccc12)c1n[nH]c2ccc3c(c12)O[C@@H](CN1CCCC1)CO3 (as salt: hydrochloride) | 182.6 to 184.3 °C |
| CNC[C@H]1COc2ccc3[nH]nc(S(=O)(=O)c4cccc5ccccc45)c3c2O1 (as salt: hydrochloride) | 181.3 to 183.3 °C |
| O=S(=O)(c1cccc2ccccc12)c1n[nH]c2ccc3c(c12)O[C@@H](CN1CCCCC1)CO3 (as salt: hydrochloride) | 163.9 to 165.2 °C |

Inquiry: For the compound CCN(CC)C[C@@H]1COc2ccc3[nH]nc(S(=O)(=O)c4cccc5ccccc45)c3c2O1 (as salt: hydrochloride) , give its reported melting point.
Reply text: > 200 °C

Inquiry: For the compound CN(C)C[C@@H]1COc2ccc3[nH]nc(S(=O)(=O)c4cccc5ccccc45)c3c2O1 (as salt: hydrochloride) , give its reported melting point.
Reply text: > 200 °C

---

assay-target: human cloned 5-HT6 receptors (Homo sapiens, UniProt P50406)
Sequence (P50406 whole entry): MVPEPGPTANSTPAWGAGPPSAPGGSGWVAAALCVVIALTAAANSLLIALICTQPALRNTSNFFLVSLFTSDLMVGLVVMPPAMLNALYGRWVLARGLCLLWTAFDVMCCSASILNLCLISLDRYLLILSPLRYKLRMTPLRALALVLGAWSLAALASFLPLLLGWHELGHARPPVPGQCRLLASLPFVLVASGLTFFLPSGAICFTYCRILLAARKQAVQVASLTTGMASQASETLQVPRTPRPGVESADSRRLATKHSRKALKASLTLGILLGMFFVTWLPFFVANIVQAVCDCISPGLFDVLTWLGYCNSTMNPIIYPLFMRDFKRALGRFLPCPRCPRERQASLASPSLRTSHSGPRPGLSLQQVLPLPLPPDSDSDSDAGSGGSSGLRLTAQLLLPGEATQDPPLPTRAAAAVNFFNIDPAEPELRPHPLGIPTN
protocol: Evaluation of 5-HT6 binding affinity ([3H]-LSD displacement, membranes of Hela cells)
settings: read-out: 5-HT6 Binding Ki; [3H]-LSD 3.0 nM, Hela cell membranes expressing human cloned 5-HT6 receptors, 120 minutes at room temperature
readout-kind: Ki (nM)
Your answer should be a plain number; it is taken to be in nM.

Inquiry: For the compound CCCCNC[C@@H]1COc2ccc3[nH]nc(S(=O)(=O)c4cccc5ccccc45)c3c2O1 [Example 18] , give its reported Ki.
Reply text: 30

---

We begin with a simple list: items and their reported Ki.
assay-target: UniProt:P50406
protocol: Evaluation of 5-HT6 binding affinity ([3H]-LSD displacement, membranes of Hela cells)
Where a name gives a salt, the structure may show the parent alone.
Your answer should be a plain number; it is taken to be in nM.

Example entries begin here.
| compound | readout-unit | Ki |
| --- | --- | --- |
| CCNC[C@H]1COc2ccc3[nH]nc(S(=O)(=O)c4cccc5ccccc45)c3c2O1 | nM | 84 |
| O=S(=O)(c1cccc2ccccc12)c1n[nH]c2ccc3c(c12)O[C@@H](CN1CCCC1)CO3 | nM | 31 |
| CCN(CC)C[C@@H]1COc2ccc3[nH]nc(S(=O)(=O)c4cccc5ccccc45)c3c2O1 | nM | 42 |
| O=S(=O)(c1cccc2ccccc12)c1n[nH]c2ccc3c(c12)O[C@H](CN1CCCC1)CO3 | nM | 39.5 |
| CCN(CC)C[C@H]1COc2ccc3[nH]nc(S(=O)(=O)c4cccc5ccccc45)c3c2O1 | nM | 13.5 |

Inquiry: For the compound CN(C)C[C@H]1COc2ccc3[nH]nc(S(=O)(=O)c4cccc5ccccc45)c3c2O1 , give its reported Ki.
Reply text: 61.5

Inquiry: For the compound CCNC[C@@H]1COc2ccc3[nH]nc(S(=O)(=O)c4cccc5ccccc45)c3c2O1 , give its reported Ki.
Reply text: 32.5

Inquiry: For the compound CNC[C@H]1COc2ccc3[nH]nc(S(=O)(=O)c4cccc5ccccc45)c3c2O1 [Example 6, Hydrochloride] , give its reported Ki.
Reply text: 44.5

Inquiry: For the compound CNC[C@@H]1COc2ccc3[nH]nc(S(=O)(=O)c4cccc5ccccc45)c3c2O1 , give its reported Ki.
Reply text: 54.5

Inquiry: For the compound CN(C)C[C@@H]1COc2ccc3[nH]nc(S(=O)(=O)c4cccc5ccccc45)c3c2O1 , give its reported Ki.
Reply text: 31

Inquiry: For the compound O=S(=O)(c1cccc2ccccc12)c1n[nH]c2ccc3c(c12)O[C@@H](CN1CCCCC1)CO3 , give its reported Ki.
Reply text: 79

Inquiry: For the compound O=S(=O)(c1cccc2ccccc12)c1n[nH]c2ccc3c(c12)O[C@H](CN1CCCCC1)CO3 , give its reported Ki.
Reply text: 36.5

The measured values listed here are drawn from patent US20070244179A1.
